// data source = the domain aggregation screens of Martell et al. (2025)

Measured soluble fraction (log2) values are reported for all entries that follow.
# METHOD DESCRIPTION: soluble fraction after stress (log2 fold change); higher = more stays soluble; pooled small domains, quantitative proteomics;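 also: 20 min heating vs room temperature control held 20 min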
# CONDITION INFO: stress: 75 degC
Lab note: write the figure by itself, no unit.

# example entries with known answers
| SEQUENCE INPUT | ASSAY ENDPOINT | RECORDED VALUE |
| --- | --- | --- |
| HMPGRKTTFEERLSIIEDLIKHDVNYSWAVDKYHVSYQQVYGWYQKYRKSGNDPQSLRDRRGK | soluble fraction (log2) | -3.65 |
| HMNKRKQRINDLMDLIREQPALSIKNLAEMLNVSEMTIRRDMAYLKSNNLLNRAHGMNFLNS | soluble fraction (log2) | -0.407 |

Turning to the following sequence.
Given the entry HMGGQFVKVEVIAQIFGVTVRRVQQLTQEGVVKTTEIPGEGRRYELVPTIKTYIQYLSDKAY , report its measured soluble fraction (log2). -4.02

* * *

Listed sequences paired with reported soluble fraction (log2)
# METHOD DESCRIPTION: soluble fraction after stress (log2 fold change); higher = more stays soluble; pooled small domains, quantitative proteomics
# CONDITION INFO: stress: 75 degC
Keep the answer to the number alone.

Examples from the recorded data:
| SEQUENCE INPUT | soluble fraction (log2) |
| --- | --- |
| HMEPMLEIFDAKIDLADVLAVESGLVRLRGGAEVTSPRVDVDAGARLELDSGARLNVERLSY | 0.155 |
| HMDSGFMRTTQSYTVARLAEIFRLSGEDYLAVLREYDGWYQDLTSTKDLIRKGSDVPVPEGV | -1.67 |
| HMKDNPNETFERIAGKITRTLRSGPVRIQQLDLLFSESAGKVVDVLRAMAENGEVLIKDDTIQLNGNN | -0.0108 |

Give the measured soluble fraction (log2) of HMKVQEMTANSFLTQWEAGNVKTLDILPEGIIKGELNDGTKFQLYYSSAAGLIDDVKKNPEKFANTTVSEK . 0.0538

May I ask what soluble fraction (log2) has been recorded for HMPDGTATATASVNVRSGASTLSPVLGVLRVGESIGVTGQANGGWVPVNYNGRAGYVYAAYLSFD ? -0.915

Reported soluble fraction (log2), sequence HMGRQVTVPNVTGMLVEEARAAISEAELWVDSPRAVQGEVTRQEPARGERLSPGQEVRIYTES : ____ 0.204

Look at this sequence and give its reported soluble fraction (log2). HMAGFGDSLEKMSDAVEALKLLMSTEDARNDQNIQKIARELKDVFNKYRTHLRKSYPDQYDRIKSTL -0.742

What does the data say about its soluble fraction (log2)? Entry: HMDWVAYGAELRRRRLLAGWSVAELSRRTNLSTSIIYQVEQARTRLRPSQLTLAKLAAALGMP -3.1

Which soluble fraction (log2) value is on record for HMDSGLEQAKTAALENAELETSQVTFIKAELDYDDGKKVYEIEFVTSAMKYEYQVKADDFSILEMSKETIE ? -0.755

Dear colleague, I am looking for the recorded soluble fraction (log2) of the following sequence: HMAPFVIQQGQDVRLISKGPGFAVSNDGKALTNAAEGQLARARTANGQTVSGIARQGGIIEIA -0.0321

Quick one: soluble fraction (log2) for HMIKSIRELAEVITLWKNQGKTILIAEHRLSYLMDLADRVLYMKDGQIENDFSMADFRKIPPDEISRMGLR ? 0.103

Data request, read-out soluble fraction (log2), for HMVDPRWETPDENLAEQIKSVMPVMWVYDREAKSFVERPAIDFSFSIFERTTLYIYDKDGNEIGFAR -0.0443

Name the recorded soluble fraction (log2) for HMEPKIKQIVPNVVNYPVEDAKNVLVNSGLIVQIRGQGNIVYDQVPKGGAEVTRGTTVILDLNPPPGA . -0.0576

Sample HMDYIITHYPDNKRFETQVDGVVAFVQYRLSGDKLDIIHTIVPPAIGGRGIAAALVKYAYDYAIENGMK — what was its soluble fraction (log2)? -2.13

Would you kindly share the measured soluble fraction (log2) for HMEVPQKTLEILEPWRGRKGFLIPVLQAVQHEFGYVPKEAIETVSREMKMPTAEIYGVVTFYAQFH ? -0.571

Consider the sequence shown here: HMYAHTPEMEAMNELGLEPPVTLDEIKKTYKTLVKKYHPDHNKEDPEAEEKLKKVNMAYTILKVAYTEFEK What is its recorded soluble fraction (log2)? -0.246

If you can, please state the reported soluble fraction (log2) value of HMPPGQIVNEALQRAGNSTPTGTAISAQDDIKLYTSALAELATQGDTSSASVAKLREALQTAQVAFYNAV . 0.201

* * *

# METHOD DESCRIPTION: soluble fraction after stress (log2 fold change); higher = more stays soluble; pooled small domains, quantitative proteomics
# CONDITION INFO: stress: 75 degC
Label scheme, based on soluble fraction (log2): low = under -1, intermediate = from -1 up to -0.4, high = -0.4 and over

Here are 8 sequences together with their reported answers.
| SEQUENCE INPUT | CAT |
| --- | --- |
| HMNEIYHQIKVDNVSDDDISLFQYSGIEFDHADYRRGEYIEFAISNRDLSILNNLGYEYQVVHH | intermediate |
| HMADDFISTLFSEGIIIDTEVKQFAERQGSPLQFVRHIASNLPEPRDIITMGEVRSVMREGA | high |
| HMAEPYDEDKVMEHLYIKGKDVVIAHLKHLKEHNEHVWLKKGVEWMQKNQDRLGFDMMEVIYVVHNH | intermediate |
| HMQSLIVPVPKPEDDPVYKDGIKQDPVEVVSIWLGRDYLNMILNLKVSTGKGHTFGIVEDVS | high |
| HMPRELKVRDVSHQHAGHAGWREGGETHFEVDMKADVFAGTSRVAAHRMVNKVLANELASRVHALQLNLS | high |
| HMSTSLIEFTIDRNNSIANKMIMDANIPEDILVVMIKRNGDVFVPNGSTKILPGDILVLSGNKLKY | low |
| HMRKIEDVLRLHAQGMSTRRIALATGVGKTTVIEYLRRAAVAGLSWPLPEGLDEEALERRVFPPPP | low |
| HMFTYEETIGKSADVYLTIPALKAGKGKIIISVRGSVHELDAMTNNAEKISTGAVVKIVRIEHGNILLVEN | low |

Category of HMQEAATSLNAKILAKLRENNGTLAVSDKSDPALISSLFGVSKGNFKKAIGALYKNGQIVIHADRIEL : intermediate

Which class is correct for the following sequence? HMIKVAANESNRSDVLEIVRLFRVRVVDVNPESLTIEATGAEGKIDALLGLLEHYGVIELVRSGAVAVT low

Could you tell me which band HMSVGDLLENLIRETRAQFSAPPESLGVAEKRRFVALLSQKGGFLLKGAVSRAASVLGVSEQTVYRYLKDS belongs to? low

Returns: class label. Input: HMIGDYALILNIKGGSDWYLGNRVELLFTDGTSKIVTTDKDYNAKKDMVPTQIVTYKVNDNGEYSLKALPT low

Class? Entry: HMNETHANKVYNFLKKKKKPLSAYEILKELASEGISAPTTIYRALNKLVSNGLIHKIESLNAWTV high

Would you mind sorting HMIISMKKGATPQEISHVRKLIEELGYKVHESQGSERMVFGAIGDERSKHRLTSLEAQPGVEKVIPILA into the appropriate category? high

Field: class (soluble fraction (log2)) — entry: HMFQYEKIKDYILTGLEEGTWQAGDKIPSEAELVMSLNVSRMTVNRAVRELANSGLLVRIPGAGTFVATE intermediate

Which bin should I file HMPLYKYYTSYQIEPGDTLTSIAQKYTINSDVSVQDYIDEVKKNNNLVSDKINSGSYLVVSYYSNEY under? low

* * *

As shown below, each of these sequences has a reported soluble fraction (log2) value.
# METHOD DESCRIPTION: soluble fraction after stress (log2 fold change); higher = more stays soluble; pooled small domains, quantitative proteomics
# CONDITION INFO: stress: 75 degC
Just the number.

| SEQUENCE INPUT | ASSAY ENDPOINT | RECORDED VALUE |
| --- | --- | --- |
| HMSFGKKLRSLRQEKKLSQVELSKKLNVTSQALSQYELGKRIPDAEMIIRIADFFDVSVDYLLDRT | soluble fraction (log2) | -1.69 |
| HMNRITEFVVPEGTKKIRADKLLAESFPDHSRSDFHRAFDASLVRLEGQPISKNRKISQGDVLVFEMPEI | soluble fraction (log2) | 0.505 |
| HMEITTEDIAAQVASWIVRLSEDLTSTDRAALQIEFEQWQQTDSRRAEIAHKMLSLIGQAEQLRKT | soluble fraction (log2) | -0.712 |

Endpoint output: soluble fraction (log2) of HMAVQAESDIIKRAALLRNLGNTSMQLKNIDQAIDFYKQGIKLHPEDAELKYNLSQALRQKSQSNN . Value? 0.055

Fill in: soluble fraction (log2) of HMADYSMDDNAWNAKKADIDEWFEANPDFSANKAITDGLFSIGDSQVEMRKRYWASIAGVFAGLPNSPIG is ___ 0.0121

So what does the record say about soluble fraction (log2) for HMKINKQHLAFQIFGIRAKLGLSMEQFGELLGANKSSVSGWERGTVVPSSQRLKKIAELGKISLAELLTP ? -3.01

Need soluble fraction (log2) of HMEPMTDQQILEGFAEFKRQNPDLMNRPATQAIVNLTLPGGTPISFRSGAGAAALNQYLESIGMRAGP , thanks. 0.0601

I'd like to know its soluble fraction (log2). The sequence in question is HMSFPDTYFKGNKVIGLSYNDLKKFLNNAGYSKFDEEVEEWGEKRVSIEDDMVDFYLEDDKVVSI -0.361
